Values from patent US11174268B2

The entries below are paired with their reported pIC50.
Biological target: NaV1.5 (Homo sapiens (Human))
Sequence (Q14524 other isoform, or with tags, fused parts or gaps): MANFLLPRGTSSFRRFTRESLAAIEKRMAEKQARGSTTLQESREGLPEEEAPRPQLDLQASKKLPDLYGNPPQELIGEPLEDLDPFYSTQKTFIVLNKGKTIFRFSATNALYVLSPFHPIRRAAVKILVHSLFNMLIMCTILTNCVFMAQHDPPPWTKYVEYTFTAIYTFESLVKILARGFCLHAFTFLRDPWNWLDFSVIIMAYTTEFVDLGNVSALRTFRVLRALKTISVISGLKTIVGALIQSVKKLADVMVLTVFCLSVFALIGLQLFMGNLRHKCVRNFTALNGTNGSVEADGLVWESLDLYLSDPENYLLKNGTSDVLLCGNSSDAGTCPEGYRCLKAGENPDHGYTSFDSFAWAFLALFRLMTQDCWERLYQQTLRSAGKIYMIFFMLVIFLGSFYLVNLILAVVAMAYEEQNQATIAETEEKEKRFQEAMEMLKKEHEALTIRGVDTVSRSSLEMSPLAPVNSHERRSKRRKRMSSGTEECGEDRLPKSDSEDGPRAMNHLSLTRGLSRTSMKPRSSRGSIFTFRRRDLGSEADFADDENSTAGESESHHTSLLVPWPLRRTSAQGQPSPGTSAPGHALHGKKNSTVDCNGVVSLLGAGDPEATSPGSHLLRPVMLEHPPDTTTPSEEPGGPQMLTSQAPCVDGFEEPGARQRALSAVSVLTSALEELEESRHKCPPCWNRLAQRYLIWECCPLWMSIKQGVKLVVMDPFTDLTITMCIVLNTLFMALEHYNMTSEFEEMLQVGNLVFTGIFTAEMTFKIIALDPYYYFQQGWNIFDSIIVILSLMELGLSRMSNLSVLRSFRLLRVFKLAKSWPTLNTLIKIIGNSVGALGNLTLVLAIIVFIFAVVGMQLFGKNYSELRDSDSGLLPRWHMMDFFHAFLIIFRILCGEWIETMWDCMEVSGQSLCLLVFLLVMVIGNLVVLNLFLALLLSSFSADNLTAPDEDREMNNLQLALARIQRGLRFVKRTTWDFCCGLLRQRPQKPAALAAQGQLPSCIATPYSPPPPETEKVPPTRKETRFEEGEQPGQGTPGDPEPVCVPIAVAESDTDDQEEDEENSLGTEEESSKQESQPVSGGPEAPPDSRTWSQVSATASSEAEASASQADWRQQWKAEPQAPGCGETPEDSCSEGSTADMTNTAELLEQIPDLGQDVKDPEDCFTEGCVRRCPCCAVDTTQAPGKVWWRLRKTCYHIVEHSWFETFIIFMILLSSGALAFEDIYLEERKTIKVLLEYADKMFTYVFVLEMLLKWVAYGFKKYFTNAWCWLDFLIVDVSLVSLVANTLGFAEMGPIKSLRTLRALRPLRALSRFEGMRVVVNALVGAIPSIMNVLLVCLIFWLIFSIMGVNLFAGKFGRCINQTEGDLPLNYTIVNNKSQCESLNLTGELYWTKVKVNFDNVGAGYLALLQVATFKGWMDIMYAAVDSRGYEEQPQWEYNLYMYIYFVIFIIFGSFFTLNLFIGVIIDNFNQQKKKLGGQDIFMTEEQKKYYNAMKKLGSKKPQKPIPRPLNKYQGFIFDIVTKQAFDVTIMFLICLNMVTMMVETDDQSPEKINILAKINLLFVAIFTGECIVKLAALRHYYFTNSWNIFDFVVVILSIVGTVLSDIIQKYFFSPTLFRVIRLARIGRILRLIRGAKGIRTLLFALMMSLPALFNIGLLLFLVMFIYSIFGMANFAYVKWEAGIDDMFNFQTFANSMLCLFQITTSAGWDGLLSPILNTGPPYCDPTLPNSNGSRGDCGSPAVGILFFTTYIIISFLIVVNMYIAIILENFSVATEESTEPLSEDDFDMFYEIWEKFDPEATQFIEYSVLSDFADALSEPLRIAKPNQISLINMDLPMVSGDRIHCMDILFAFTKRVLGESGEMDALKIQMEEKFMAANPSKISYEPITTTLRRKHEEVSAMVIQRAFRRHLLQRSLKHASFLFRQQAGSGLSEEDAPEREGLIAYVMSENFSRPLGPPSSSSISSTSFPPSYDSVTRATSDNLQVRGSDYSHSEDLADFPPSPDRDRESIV
Experiment: Sodium Influx Assay (Flux), NaV1.5
Conditions: read-out: Flux NaV1.5 IC50; Trex HEK293 cells, ANG2 dye, inactivated state
pIC50: −log10 of the molar value. Where a name gives a salt, the structure may show the parent alone.
readout: pIC50

{"molecule": "O=S(=O)(Nc1cscn1)c1ccc(NCc2c(F)cccc2CN2CC(F)C2)c(Cl)c1F", "readout": "pIC50", "recorded number": 5.04}
{"molecule": "O=S(=O)(Nc1ccon1)c1ccc(NCc2c(F)cccc2CN2CCCC2)c(F)c1F [Example 294, 2,2,2-trifluoroacetate]", "readout": "pIC50", "recorded number": 4.52}
{"molecule": "C[C@H](Nc1cc(F)c(S(=O)(=O)Nc2cscn2)cc1Cl)c1cc(Cl)ccc1F", "readout": "pIC50", "recorded number": 5.27}
{"molecule": "Cc1cc(NS(=O)(=O)c2cc(Cl)c(N[C@@H](C)c3ccccc3Cl)cc2F)ncn1", "readout": "pIC50", "recorded number": 4.65}
{"molecule": "CC(Nc1ccc(S(=O)(=O)Nc2nccs2)cc1Cl)c1cnn(C)c1 (stereo not shown)", "readout": "pIC50", "recorded number": 4.52}
{"molecule": "O=S(=O)(Nc1nccs1)c1cc(Cl)c(NCc2ccccc2CN2CCC2)cc1F [Example 16, 2,2,2-trifluoroacetate]", "readout": "pIC50", "recorded number": 4.63}
{"molecule": "O=S(=O)(Nc1nccs1)c1cc(Cl)c(NC2(c3ccc(F)cc3)CC2)cc1F", "readout": "pIC50", "recorded number": 4.52}
{"molecule": "O=S(=O)(Nc1cscn1)c1cc(Cl)c(NCc2c(F)ccc(F)c2CO)cc1F", "readout": "pIC50", "recorded number": 4.52}
{"molecule": "C[C@H](Nc1ccc(S(=O)(=O)Nc2cscn2)cc1C(F)(F)F)c1cc(F)ccc1F", "readout": "pIC50", "recorded number": 5.34}
{"molecule": "O=S(=O)(Nc1nccs1)c1cc(Cl)c(N[C@H](CN2CCC2)c2ccccc2)cc1F [Example 67, 2,2,2-trifluoroacetate]", "readout": "pIC50", "recorded number": 4.52}
{"molecule": "O=S(=O)(Nc1cscn1)c1c(F)cc(NCc2c(Cl)cccc2CN2CC(F)C2)cc1F", "readout": "pIC50", "recorded number": 4.52}
{"molecule": "Cc1cc(NCc2ccccc2CN2CCC2)c(F)c(F)c1S(=O)(=O)Nc1cscn1 [Example 312, 2,2,2-trifluoroacetate]", "readout": "pIC50", "recorded number": 5.02}
{"molecule": "O=S(=O)(Nc1cscn1)c1c(F)cc(NCc2cc(CN3CCC3)ccc2F)cc1F [Example 195, formate]", "readout": "pIC50", "recorded number": 4.52}
{"molecule": "CC(C)(C)NCc1cccc(F)c1CNc1cc(F)c(S(=O)(=O)Nc2cscn2)c(F)c1 [Example 178, formate]", "readout": "pIC50", "recorded number": 4.52}
{"molecule": "O=S(=O)(Nc1nccs1)c1cc(Cl)c(NC2(c3ccccc3F)CCC2)cc1F", "readout": "pIC50", "recorded number": 5.13}
{"molecule": "O=S(=O)(Nc1nccs1)c1ccc(NC2(c3ccccc3)COC2)c(Cl)c1", "readout": "pIC50", "recorded number": 4.54}
